Below, each entry is listed with its recorded IC50 [M], NFκB-luciferase, 300 pM hIL-36γ.
Test System: T1, Macaca fascicularis IL-36R on cells (Macaca fascicularis, UniProt A0A2K5WSK9 20-558)
T1 sequence: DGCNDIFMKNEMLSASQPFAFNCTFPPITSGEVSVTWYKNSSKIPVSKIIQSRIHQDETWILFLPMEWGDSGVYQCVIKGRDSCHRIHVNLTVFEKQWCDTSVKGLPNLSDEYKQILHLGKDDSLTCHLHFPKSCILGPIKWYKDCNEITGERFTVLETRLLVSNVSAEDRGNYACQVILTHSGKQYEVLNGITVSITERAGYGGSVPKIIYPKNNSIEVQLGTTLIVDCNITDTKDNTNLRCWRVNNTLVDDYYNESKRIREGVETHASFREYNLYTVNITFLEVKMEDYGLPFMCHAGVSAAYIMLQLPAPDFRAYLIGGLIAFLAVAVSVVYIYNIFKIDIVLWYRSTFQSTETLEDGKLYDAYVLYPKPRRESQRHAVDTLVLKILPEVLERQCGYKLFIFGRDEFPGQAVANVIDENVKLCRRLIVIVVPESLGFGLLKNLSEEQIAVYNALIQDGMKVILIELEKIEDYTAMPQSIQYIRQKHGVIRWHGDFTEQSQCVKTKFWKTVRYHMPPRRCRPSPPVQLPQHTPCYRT
Assay Text: cell-based or functional assay
Quick note: give the figure in M, leave out the unit.

Req: Please indicate IC50 [M], NFκB-luciferase, 300 pM hIL-36γ recorded for H4H14728P (antibody, human IgG4 S228P, kappa, V domains shown) VH: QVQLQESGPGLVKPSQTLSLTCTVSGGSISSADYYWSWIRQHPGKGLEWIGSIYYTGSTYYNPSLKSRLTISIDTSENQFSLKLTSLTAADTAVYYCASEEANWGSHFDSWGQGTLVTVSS VL: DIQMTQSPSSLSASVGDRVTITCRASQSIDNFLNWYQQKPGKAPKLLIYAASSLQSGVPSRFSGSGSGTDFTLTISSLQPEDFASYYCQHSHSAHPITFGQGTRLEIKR
Resp: 2e-09

Req: Please indicate IC50 [M], NFκB-luciferase, 300 pM hIL-36γ recorded for H4H14706P2 (antibody, human IgG4 S228P, kappa, V domains shown) VH: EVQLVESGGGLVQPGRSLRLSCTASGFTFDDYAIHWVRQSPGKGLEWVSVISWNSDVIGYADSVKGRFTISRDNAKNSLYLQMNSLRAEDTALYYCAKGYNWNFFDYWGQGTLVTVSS VL: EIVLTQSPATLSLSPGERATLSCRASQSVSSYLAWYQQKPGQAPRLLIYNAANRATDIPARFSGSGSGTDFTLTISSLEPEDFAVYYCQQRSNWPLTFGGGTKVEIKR
Resp: 8.5e-11
